# experimental_target: eIF4E cap-binding site (Homo sapiens, UniProt P06730)
# Construct: pET11d expression plasmid containing the full-length eIF4E clone; made in house; host or cells: E. coli Rosetta pLysS
# Sequence (P06730 whole entry): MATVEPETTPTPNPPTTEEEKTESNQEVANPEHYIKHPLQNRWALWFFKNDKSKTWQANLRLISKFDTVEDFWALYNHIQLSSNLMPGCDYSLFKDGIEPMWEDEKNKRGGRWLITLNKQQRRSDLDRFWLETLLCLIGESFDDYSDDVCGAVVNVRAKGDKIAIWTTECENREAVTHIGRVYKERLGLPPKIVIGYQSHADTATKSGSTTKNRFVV
# assay_info: m^7GTP^FAM competitive fluorescence anisotropy assay
# assay_conditions: read-out: Competitive Anisotropy (kd, nM) m^7GTP^FAM, non-reducing conditions, 1:1 binding model, triplicate, Kds > 20,000 denoted non-binders
recorded_metric: Kd (nM)

m^7GTP^BIOTIN ... 34.7

###

# experimental_target: eIF4E eIF4G interaction site (eIF4E:4G interface) (Homo sapiens, UniProt P06730)
# Construct: pET11d expression plasmid containing the full-length eIF4E clone; made in house; host or cells: E. coli Rosetta pLysS
# Sequence (P06730 whole entry): as above
# assay_info: eIF4G^FAM tracer peptide competitive fluorescence anisotropy assay
# assay_conditions: non-reducing conditions, 1:1 binding model, triplicate, Kds > 20,000 denoted non-binders, read-out: Competitive Anisotropy (kd, nM) eIF4AG^FAM
recorded_metric: Kd

m^7GTP^BIOTIN ... > 20000 nM

###

# experimental_target: LgBiT-eIF4E:SmBiT-VH-DIF^CAP-01 interaction (eIF4E cap-binding site) (Homo sapiens, UniProt P06730)
# assay_info: NanoBIT^CAP complementation assay in HEK293 cells
# assay_conditions: HEK293 cells permeabilized with sub-CMC digitonin; read-out: IC50 for disruption of LgBiT-eIF4E with SmBiT-VH-DIF^CAP-01 interaction
recorded_metric: IC50 (µM)

Cn1c[n+]([C@@H]2O[C@H](COP(=O)(O)OP(=O)([O-])O)[C@@H](O)[C@H]2O)c2nc(N)[nH]c(=O)c21 ... 34.5
